Recorded values, source patent US10376481B2.

# MEASURED_TARGET: human NHE3 (Homo sapiens)
# Sequence (P48764 26-834): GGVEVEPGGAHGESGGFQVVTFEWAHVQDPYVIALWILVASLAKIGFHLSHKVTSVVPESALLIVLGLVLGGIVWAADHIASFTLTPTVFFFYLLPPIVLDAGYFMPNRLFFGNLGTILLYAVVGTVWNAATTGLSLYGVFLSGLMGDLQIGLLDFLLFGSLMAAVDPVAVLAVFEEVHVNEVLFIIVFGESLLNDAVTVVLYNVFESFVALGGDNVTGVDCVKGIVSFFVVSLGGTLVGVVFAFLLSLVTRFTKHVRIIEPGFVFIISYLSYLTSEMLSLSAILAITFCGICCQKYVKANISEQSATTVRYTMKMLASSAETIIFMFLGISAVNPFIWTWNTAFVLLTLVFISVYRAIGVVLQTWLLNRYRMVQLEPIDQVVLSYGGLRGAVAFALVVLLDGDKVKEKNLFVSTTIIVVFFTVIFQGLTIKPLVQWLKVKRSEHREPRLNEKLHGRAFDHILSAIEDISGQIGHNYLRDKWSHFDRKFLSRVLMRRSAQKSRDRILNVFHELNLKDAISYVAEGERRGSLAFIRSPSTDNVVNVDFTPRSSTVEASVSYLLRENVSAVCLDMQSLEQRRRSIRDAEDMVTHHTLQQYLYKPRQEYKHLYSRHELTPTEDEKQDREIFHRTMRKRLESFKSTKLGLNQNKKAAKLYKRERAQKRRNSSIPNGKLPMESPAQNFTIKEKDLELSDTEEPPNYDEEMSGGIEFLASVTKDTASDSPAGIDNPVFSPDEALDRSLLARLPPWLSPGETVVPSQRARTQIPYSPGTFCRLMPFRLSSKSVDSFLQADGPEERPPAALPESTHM
# PROTOCOL_SUMMARY: Cell-based assay of NHE-3 activity (persistent inhibition), human
# MEASUREMENT_CONTEXT: PS120 fibroblasts stably expressing human NHE3, 60 min incubation then washout; read-out: pIC50 (human Persistence assay) (converted)
# IC50 per record follows
REPORTED_PROPERTY: IC50

- O=C(NCCCCNC(=O)NCCOCCOCCNC(=O)Nc1cccc(O[C@H]2c3ccccc3C[C@@H]2N2CCCCC2)c1)NCCOCCOCCNC(=O)Nc1cccc(O[C@H]2c3ccccc3C[C@@H]2N2CCCCC2)c1 [Example 13]: > 1000 nM
- CN(C)[C@H]1Cc2c(Cl)cc(Cl)cc2[C@@H]1Oc1ccc(S(=O)(=O)NCCOCCOCCNC(=O)COCC(=O)NCCOCCOCCNS(=O)(=O)c2ccc(O[C@H]3c4cc(Cl)cc(Cl)c4C[C@@H]3N(C)C)cc2)cc1 [Example 9]: 100 to 1000 nM
- O=C(NCCCCNC(=O)NCCOCCOCCNS(=O)(=O)c1ccc(O[C@H]2c3cc(F)ccc3C[C@@H]2N2CCCCC2)cc1)NCCOCCOCCNS(=O)(=O)c1ccc(O[C@H]2c3cc(F)ccc3C[C@@H]2N2CCCCC2)cc1 [Example 23]: 100 to 1000 nM
- O=C(NCCCCNC(=O)NCCOCCOCCNS(=O)(=O)c1ccc(O[C@H]2c3cc(Cl)cc(F)c3C[C@@H]2N2CCCCC2)cc1)NCCOCCOCCNS(=O)(=O)c1ccc(O[C@H]2c3cc(Cl)cc(F)c3C[C@@H]2N2CCCCC2)cc1 [Example 24]: < 100 nM
